Give EC50 for every item shown.
Biological target: human follicle-stimulating hormone receptor (FSHR) (Homo sapiens)
Construct: host or cells: CHO-K1
Sequence (P23945 18-695): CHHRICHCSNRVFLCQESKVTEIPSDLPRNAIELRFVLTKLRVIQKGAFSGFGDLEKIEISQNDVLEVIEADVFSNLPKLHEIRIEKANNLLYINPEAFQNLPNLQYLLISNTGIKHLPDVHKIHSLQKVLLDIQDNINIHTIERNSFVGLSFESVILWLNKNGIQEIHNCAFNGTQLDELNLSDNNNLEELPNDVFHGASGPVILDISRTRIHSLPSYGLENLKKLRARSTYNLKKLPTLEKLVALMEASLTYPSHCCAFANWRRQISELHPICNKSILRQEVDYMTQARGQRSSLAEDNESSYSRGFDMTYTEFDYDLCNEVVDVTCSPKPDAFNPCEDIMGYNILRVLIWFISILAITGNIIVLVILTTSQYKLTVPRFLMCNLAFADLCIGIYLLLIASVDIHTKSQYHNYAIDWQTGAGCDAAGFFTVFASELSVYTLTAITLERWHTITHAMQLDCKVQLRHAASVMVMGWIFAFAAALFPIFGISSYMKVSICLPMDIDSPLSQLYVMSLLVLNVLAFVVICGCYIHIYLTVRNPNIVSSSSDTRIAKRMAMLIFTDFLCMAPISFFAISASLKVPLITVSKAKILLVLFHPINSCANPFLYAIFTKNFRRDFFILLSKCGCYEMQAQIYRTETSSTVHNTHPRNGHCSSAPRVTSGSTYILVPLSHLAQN
Experiment: Measurement of agonist cAMP production by activation of human FSHR
Assay type: cell-based
Settings: CHO-K1 human FSHR cells, 30 minutes at 37° C., HTRF cAMP kit; read-out: hFSHR Agonist cAMP EC50
Starred links: 1 amine or outer side, 2 acyl side, 3 side chain; linkers in the order of their positions; H or OH if unused. Non-standard residues stand in square brackets, D forms with d. Residues, ends and D or L forms follow the SMILES beside them. Groups on a side chain read outwards from the residue. *: point of attachment. X1 = COc1cc2c(cc1-c1cccc(N*)c1)-c1c(c(C(=O)N3CCOCC3(C)C)nn1-c1cc(Cl)cc(Cl)c1)CO2; DOTA = O=C(O)CN1CCN(CC(=O)O)CCN(CC(=O)*)CCN(CC(=O)O)CC1; Suc = O=C(CCC(=O)[*:2])[*:1]

Lab request: please report EC50 under test system human follicle-stimulating hormone receptor (FSHR) (Homo sapiens) for COc1cc2c(cc1-c1cncc(OCCCNC(=O)[C@@H](CCCNC(=N)N)NC(=O)CCNC(=O)CN3CCN(CC(=O)O)CCN(CC(=O)O)CCN(CC(=O)O)CC3)c1)-c1c(c(C(=O)N3CCCN(C(=O)C4CCC4)CC3)nn1-c1cccs1)CO2
< 10 nM

Which EC50 is reported with human follicle-stimulating hormone receptor (FSHR) (Homo sapiens) for this entry: COc1cc2c(cc1-c1cccc(NC(=O)C[C@H](O)C[C@H](O)CCNC(=O)CN3CCN(CC(=O)O)CCN(CC(=O)O)CCN(CC(=O)O)CC3)c1)-c1c(c(C(=O)N3CCOCC3(C)C)nn1-c1cc(Cl)cc(Cl)c1)CO2 ?
10 to 100 nM

Lab request: please report EC50 under test system human follicle-stimulating hormone receptor (FSHR) (Homo sapiens) for COc1cc2c(cc1-c1cccc(NC(=O)NCCNc3c(NCCNC(=O)CN4CCN(CC(=O)O)CCN(CC(=O)O)CCN(CC(=O)O)CC4)c(=O)c3=O)c1)-c1c(c(C(=O)N3CCOCC3(C)C)nn1-c1cc(Cl)cc(Cl)c1)CO2 [Compound 24]
10 to 100 nM

# get_value(readout= EC50, system= human follicle-stimulating hormone receptor (FSHR) (Homo sapiens)) for COc1cc2c(cc1-c1cccc(NC(=O)CC[C@@H](NC(=O)CN3CCN(CC(=O)O)CCN(CC(=O)O)CCN(CC(=O)O)CC3)C(=O)O)c1)-c1c(c(C(=O)N3CCOCC3(C)C)nn1-c1cc(Cl)cc(Cl)c1)CO2
10 to 100 nM

Record COc1cc2c(cc1-c1cccc(NC(=O)CCOCCOCCNC(=O)C3OC(CNC(=O)CN4CCN(CC(=O)O)CCN(CC(=O)O)CCN(CC(=O)O)CC4)C(O)C(O)C3O)c1)-c1c(c(C(=O)N3CCOCC3(C)C)nn1-c1cc(Cl)cc(Cl)c1)CO2 (centres unmarked) : what is its EC50 with human follicle-stimulating hormone receptor (FSHR) (Homo sapiens)?
< 10 nM

Query for human follicle-stimulating hormone receptor (FSHR) (Homo sapiens): what EC50 does the record show for COc1cc2c(cc1-c1cccc(NC(=O)CCC(=O)NCCCC[C@@H](NC(=O)[C@@H](CO)NC(=O)[C@@H](CC(N)=O)NC(=O)[C@@H](CO)NC(=O)[C@@H](CC(N)=O)NC(=O)[C@@H](C)NC(=O)CN3CCN(CC(=O)O)CCN(CC(=O)O)CCN(CC(=O)O)CC3)C(=O)N[C@H](C)C(N)=O)c1)-c1c(c(C(=O)N3CCOCC3(C)C)nn1-c1cc(Cl)cc(Cl)c1)CO2 [Compound 85] ({DOTA}-[dA][dN][dS][dN][dS][dK]([Suc-X1])[dA]-NH2) ?
10 to 100 nM

# query: EC50 | item COc1cc2c(cc1-c1cccc(NC(=O)C3CCN(C(=O)CN4CCN(CC(=O)O)CCN(CC(=O)O)CCN(CC(=O)O)CC4)CC3)c1)-c1c(c(C(=O)N3CCOCC3(C)C)nn1-c1cc(Cl)cc(Cl)c1)CO2 | system: human follicle-stimulating hormone receptor (FSHR) (Homo sapiens)
10 to 100 nM

Notebook: pull reported EC50 for human follicle-stimulating hormone receptor (FSHR) (Homo sapiens), entry COc1cc2c(cc1-c1cccc(NC(=O)CCC(=O)N(CCOCCOCCC(=O)O)C3CCN(C(=O)CN4CCN(CC(=O)O)CCN(CC(=O)O)CCN(CC(=O)O)CC4)CC3)c1)-c1c(c(C(=O)N3CCOCC3(C)C)nn1-c1cc(Cl)cc(Cl)c1)CO2
< 10 nM

* * *

molecular target: human follicle-stimulating hormone receptor (FSHR) (Homo sapiens, UniProt P23945); construct: host or cells: CHO-K1; assay: Measurement of agonist cAMP production by activation of human FSHR; assay type: cell-based; conditions: CHO-K1 human FSHR cells, 30 minutes at 37° C., HTRF cAMP kit; read-out: hFSHR Agonist cAMP EC50
pEC50: −log10 of the molar value. Starred links: 1 amine or outer side, 2 acyl side, 3 side chain; linkers in the order of their positions; H or OH if unused. Non-standard residues stand in square brackets, D forms with d. Residues, ends and D or L forms follow the SMILES beside them. Groups on a side chain read outwards from the residue. *: point of attachment. X1 = COc1cc2c(cc1-c1cccc(N*)c1)-c1c(c(C(=O)N3CCOCC3(C)C)nn1-c1cc(Cl)cc(Cl)c1)CO2; DOTA = O=C(O)CN1CCN(CC(=O)O)CCN(CC(=O)*)CCN(CC(=O)O)CC1; Suc = O=C(CCC(=O)[*:2])[*:1]
assayEndpoint: pEC50

Please report the recorded pEC50 for COc1cc2c(cc1-c1cccc(NC(=O)CN(C)C(=O)CN(C)C(=O)CN(C)C(=O)CN(C)C(=O)CN(C)C(=O)CCNC(=O)CN3CCN(CC(=O)O)CCN(CC(=O)O)CCN(CC(=O)O)CC3)c1)-c1c(c(C(=O)N3CCOCC3(C)C)nn1-c1cc(Cl)cc(Cl)c1)CO2 .
> 8.00

What measured pEC50 goes with COc1cc2c(cc1-c1cccc(NC(=O)NCCOCCOCCOCCOCCNC(=O)CN3CCN(CC(=O)O)CCN(CC(=O)O)CCN(CC(=O)O)CC3)c1)-c1c(c(C(=O)N3CCOCC3(C)C)nn1-c1cc(Cl)cc(Cl)c1)CO2 [Compound 8] ?
7.00 to 8.00

Requested field: pEC50. Item: COc1cc2c(cc1-c1cncc(NC(=O)CCCNC(=O)CCOCCNC(=O)CN3CCN(CC(=O)O)CCN(CC(=O)O)CCN(CC(=O)O)CC3)c1)-c1c(c(C(=O)N3CCOCC3(C)C)nn1-c1cc(F)cc(F)c1)CO2
7.00 to 8.00

I'd like to know its pEC50. The compound in question is COc1cc2c(cc1-c1cccc(NC(=O)CNC(=O)C[C@@H](NC(=O)CN3CCN(CC(=O)O)CCN(CC(=O)O)CCN(CC(=O)O)CC3)C(=O)O)c1)-c1c(c(C(=O)N3CCOCC3(C)C)nn1-c1cc(Cl)cc(Cl)c1)CO2
7.00 to 8.00

Suppose we examine the compound COc1cc2c(cc1-c1cccc(NC(=O)NCCNc3c(NCCNC(=O)CN4CCN(CC(=O)O)CCN(CC(=O)O)CCN(CC(=O)O)CC4)c(=O)c3=O)c1)-c1c(c(C(=O)N3CCOCC3(C)C)nn1-c1cc(Cl)cc(Cl)c1)CO2 [Compound 24A] ; what pEC50 value has been reported?
> 8.00

For the compound COc1cc2c(cc1-c1cccc(OCCCNC(=O)[C@@H](CCCNC(=N)N)NC(=O)CCNC(=O)CN3CCN(CC(=O)O)CCN(CC(=O)O)CCN(CC(=O)O)CC3)c1)-c1c(c(C(=O)N3CCOCC3(C)C)nn1-c1cc(Cl)cc(Cl)c1)CO2 , what pEC50 is on record?
> 8.00

Field request: pEC50 | item: COc1cc2c(cc1-c1cccc(NC(=O)CCC(=O)NCCCC[C@@H](NC(=O)[C@@H](CCC(=O)O)NC(=O)[C@@H](CCC(=O)O)NC(=O)[C@@H](CCC(=O)O)NC(=O)[C@@H](CCC(=O)O)NC(=O)[C@@H](C)NC(=O)CN3CCN(CC(=O)O)CCN(CC(=O)O)CCN(CC(=O)O)CC3)C(=O)N[C@H](C)C(N)=O)c1)-c1c(c(C(=O)N3CCOCC3(C)C)nn1-c1cc(Cl)cc(Cl)c1)CO2 [Compound 90] ({DOTA}-[dA][dE][dE][dE][dE][dK]([Suc-X1])[dA]-NH2)
7.00 to 8.00

// pEC50 lookup, key: COc1cc2c(cc1-c1cccc(NC(=O)CCOCCOCCOCCNC(=O)CN3CCN(CC(=O)O)CCN(CC(=O)O)CCN(CC(=O)O)CC3)c1)-c1c(c(C(=O)N3CCOCC3(C)C)nn1-c1cc(Cl)cc(Cl)c1)CO2 [Compound 18]
7.00 to 8.00

Quick check: pEC50 of COc1cc2c(cc1-c1cncc(NC(=O)CCCNC(=O)[C@@H](CCCNC(=N)N)NC(=O)CCNC(=O)CN3CCN(CC(=O)O)CCN(CC(=O)O)CCN(CC(=O)O)CC3)c1)-c1c(c(C(=O)N3CCOCC3(C)C)nn1-c1cc(Cl)cc(Cl)c1)CO2 ?
> 8.00

// lookup pEC50 for COc1cc2c(cc1-c1cncc(NC(=O)CCNC(=O)[C@@H](CC(=O)O)NC(=O)[C@@H](CC(=O)O)NC(=O)CC[C@@H](NC(=O)CN3CCN(CC(=O)O)CCN(CC(=O)O)CCN(CC(=O)O)CC3)C(=O)O)c1)-c1c(c(C(=O)N3CCOCC3(C)C)nn1-c1cc(Cl)cc(Cl)c1)CO2
7.00 to 8.00

Would you mind telling me what pEC50 value was observed for COc1cc2c(cc1-c1cccc(NC(=O)CCOCCOCCNC(=O)[C@H](CS(=O)(=O)O)NC(=O)CN3CCN(CC(=O)O)CCN(CC(=O)O)CCN(CC(=O)O)CC3)c1)-c1c(c(C(=O)N3CCOCC3(C)C)nn1-c1cc(Cl)cc(Cl)c1)CO2 ?
> 8.00

Fill blank: measured pEC50 of the compound COc1cc2c(cc1-c1cccc(NC(=O)[C@H](CS(=O)(=O)O)NC(=O)CN3CCN(CC(=O)O)CCN(CC(=O)O)CCN(CC(=O)O)CC3)c1)-c1c(c(C(=O)N3CCOCC3(C)C)nn1-c1cc(Cl)cc(Cl)c1)CO2 is ____.
< 7.00

Reported pEC50 for COc1cc2c(cc1-c1cncc(NC(=O)CCOCCOCCNC(=O)[C@H]3O[C@@H](CNC(=O)CN4CCN(CC(=O)O)CCN(CC(=O)O)CCN(CC(=O)O)CC4)[C@H](O)[C@@H](O)[C@H]3O)c1)-c1c(c(C(=O)N3CCOCC3(C)C)nn1-c1cc(Cl)cc(Cl)c1)CO2 [Compound 54A] : what is it?
7.00 to 8.00

Entry COc1cc2c(cc1-c1cccc(NC(=O)CCOCCOCCOCCOCCNC(=O)CN3CCN(CC(=O)O)CCN(CC(=O)O)CCN(CC(=O)O)CC3)c1)-c1c(c(C(=O)N3CCOCC3(C)C)nn1-c1cc(Cl)cc(Cl)c1)CO2 : reported pEC50 = ?
> 8.00

Look up pEC50 for this compound: COc1cc2c(cc1-c1cccc(NC(=O)CCC(=O)NCCCC[C@@H](NC(=O)[C@@H](C)NC(=O)[C@@H](CCC(=O)O)NC(=O)[C@@H](C)NC(=O)CN3CCN(CC(=O)O)CCN(CC(=O)O)CCN(CC(=O)O)CC3)C(=O)N[C@H](C)C(=O)N[C@H](CCC(=O)O)C(=O)N[C@H](C)C(N)=O)c1)-c1c(c(C(=O)N3CCOCC3(C)C)nn1-c1cc(Cl)cc(Cl)c1)CO2 [Compound 86] ({DOTA}-[dA][dE][dA][dK]([Suc-X1])[dA][dE][dA]-NH2)
7.00 to 8.00
